B1: EHEE_rd3_0053 (parent)
chain: TYTFKVDNKDQAKKAAKWAKKLGLSFQIEKHGDTFKITVQ

variants of: B1; assay: folding stability dG (cDNA display proteolysis); higher = more stable; conditions: PBS, room temperature
READOUT_KIND: folding stability dG (kcal/mol)
Enter your answer as a number in kcal/mol; do not include the unit.

// below: answered variants
K21I; 1.99
D33V; 1.95

Next variant, folding stability dG to be filled in.
Query block: # lookup: folding stability dG of K21E
Result block: 2.02

Measured values drawn from the MegaScale stability set (Tsuboyama et al. 2023) for this set.
